Measured values drawn from patent US20120202690A1 for this set.

test system: Ipomoea hederaceae (IPOHE); assay: Pre-emergence biological efficacy, glasshouse, 1000 g/ha, evaluated after 13 days (100=total damage to plant; 0=no damage to plant); format: in vivo; conditions: Ipomoea, 312 h, rate 1,000 g/ha, read-out: Percentage damage caused to weed species, pre-emergence, IPOHE
Recorded measurements of pest or weed control at 1000 g/ha, one per entry
Kindly provide the numeric value in % only, without the unit symbol.

Worked examples follow.
compound	system-under-test	pest or weed control at 1000 g/ha, %
COC(=O)c1nc(-c2ccc(Cl)c(N(C)C)c2F)nc2[nH]c(C)c(C)c12 [Compound 1-120]	Ipomoea hederaceae (IPOHE)	0
COCCOCCOC(=O)c1nc(-c2ccc(Cl)c(OC)c2F)cc2[nH]cc(C)c12 [Compound 22-85]	Ipomoea hederaceae (IPOHE)	80

Quick note, pest or weed control at 1000 g/ha for COc1c(Cl)ccc(-c2nc(C(=O)O)c3cc(C)n(Cc4ccccc4[N+](=O)[O-])c3n2)c1F [Compound 8-65] landed at 0

Quick note, pest or weed control at 1000 g/ha for COc1c(Cl)ccc(-c2cc3[nH]cc(C)c3c(C(=O)OCc3ccccc3)n2)c1F [Compound 22-86] landed at 0

Quick note, pest or weed control at 1000 g/ha for CCOCn1cc(C)c2c(C(=O)OC)nc(-c3ccc(Cl)c(OC)c3F)nc21 [Compound 3-64] landed at 0

Quick note, pest or weed control at 1000 g/ha for COC(=O)c1nc(-c2ccc(Cl)c(OC)c2F)nc2c1Nc1ccccc1N2 [Compound 119-168] landed at 0

Quick note, pest or weed control at 1000 g/ha for COc1c(Cl)ccc(-c2nc(C(=O)OCC3CCCO3)c3c(C)c[nH]c3n2)c1F (stereo not shown) [Compound 1-88] landed at 10

Quick note, pest or weed control at 1000 g/ha for COC(=O)c1nc(-c2ccc(Cl)c(OC)c2F)nc2c1cc(C)n2CC1CC1 [Compound 5-66] landed at 0

Quick note, pest or weed control at 1000 g/ha for CCCCCCCCOC(=O)c1nc(-c2ccc(Cl)c(OC)c2F)nc2[nH]cc(C)c12 [Compound 1-77] landed at 0

Quick note, pest or weed control at 1000 g/ha for COC(=O)c1nc(-c2ccc(Cl)c(OC)c2F)nc2ncccc12 [Compound 123-50] landed at 0

Quick note, pest or weed control at 1000 g/ha for COc1c(Cl)ccc(-c2nc(C(=O)OCc3ccccc3)c3c(C)c[nH]c3n2)c1F [Compound 1-86] landed at 0

Quick note, pest or weed control at 1000 g/ha for COc1ccc(Cn2cc(C)c3c(C(=O)O)nc(-c4ccc(Cl)c(OC)c4F)nc32)cc1 [Compound 10-63] landed at 0

* * *

test system: Amaranthus retroflexus (AMARE); test: Pre-emergence biological efficacy, glasshouse, 1000 g/ha, evaluated after 13 days (100=total damage to plant; 0=no damage to plant); assay type: in vivo; conditions: Amaranthus retroflexus, 312 h, rate 1,000 g/ha, read-out: Percentage damage caused to weed species, pre-emergence, AMARE
Recorded measurements of pest or weed control at 1000 g/ha, one per entry
# number then unit; no other words

molecule	pest or weed control at 1000 g/ha
COC(=O)c1nc(-c2ccc(Cl)c(OC)c2F)nc2[nH]c(C)c(C)c12	0%

Quick note, pest or weed control at 1000 g/ha for Cc1cc2c(C(=O)O)nc(C3CC3)nc2n1Cc1ccccc1[N+](=O)[O-] landed at 0%

Quick note, pest or weed control at 1000 g/ha for COC(=O)c1nc(-c2ccc(Cl)c(OC)c2F)nc2c1NC(c1ccccc1)C(c1ccccc1)N2 (stereo not shown) landed at 20%

Quick note, pest or weed control at 1000 g/ha for COc1c(Cl)ccc(-c2cc3[nH]cc(C)c3c(C(=O)OC(C)C)n2)c1F landed at 20%
